Reported pIC50 values for the following compounds.
ASSAYED_SYSTEM: Histone deacetylase 2 (Homo sapiens)
Sequence (Q92769 whole entry): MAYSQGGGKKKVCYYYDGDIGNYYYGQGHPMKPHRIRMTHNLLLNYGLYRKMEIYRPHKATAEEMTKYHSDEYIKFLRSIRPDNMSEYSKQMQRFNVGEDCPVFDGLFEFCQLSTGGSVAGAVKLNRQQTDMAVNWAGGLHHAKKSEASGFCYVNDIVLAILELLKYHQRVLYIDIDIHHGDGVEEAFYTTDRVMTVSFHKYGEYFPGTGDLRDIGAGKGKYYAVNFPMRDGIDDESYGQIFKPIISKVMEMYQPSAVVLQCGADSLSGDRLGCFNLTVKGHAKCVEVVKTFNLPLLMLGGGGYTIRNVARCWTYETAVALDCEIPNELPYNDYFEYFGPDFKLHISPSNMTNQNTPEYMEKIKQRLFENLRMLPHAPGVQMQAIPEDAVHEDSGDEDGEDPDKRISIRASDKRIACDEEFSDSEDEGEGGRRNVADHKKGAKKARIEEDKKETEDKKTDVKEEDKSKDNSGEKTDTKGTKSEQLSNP
TEST_PROTOCOL: Inhibition of HDAC2 (unknown origin)
pIC50: −log10 of the molar value.

{"COMPOUND": "CNCCOc1ccc(-c2cc(=O)c3cc(OCCCCCC(=O)NO)cc(O)c3o2)cc1", "pIC50": 7.52}
{"COMPOUND": "O=C(NO)c1ccc(NC(=O)C2(c3ccc(-c4cn[nH]c4)cc3)CCCCC2)cc1", "pIC50": 8.70}
{"COMPOUND": "CNc1ccc(-c2nc(N3CCOCC3)c3sc(CN(C)c4ncc(C(=O)NO)cn4)cc3n2)cn1", "pIC50": 9.05}
{"COMPOUND": "COc1ncc(-c2cc(OCCCCCCC(=O)NO)c3ncnc(C)c3c2)cc1F", "pIC50": 8.85}
